Below, each entry is listed alongside its reported growth.
Tested on: SK-OV-3 ovarian
Test: NCI-60 one-dose screen, 48 h (100 = growth as untreated, 0 = no growth, -100 = all killed)
Conditions: 10 µM unless noted
The panel holds about 83,000 compounds, 20% with a hit somewhere; the sample as a whole holds those more often. Activity calls are given as the source filed them. The calls were made as follows: active = growth percent below 10; inactive = the rest.
parameter: growth

| molecule | experimental value |
| --- | --- |
| Fc1ccc([C@@H]2CCNC[C@H]2COc2ccc3c(c2)OCO3)cc1 | 90.8% (inactive) |
| O=C1OC(c2ccc(-c3ccccc3)cc2)=C/C1=C/c1cccs1 | 128% (inactive) |
| COc1cc(/C=C/C(=O)Nc2ccc3c(c2)/C(=C\c2cccn2C)C(=O)N3)cc(OC)c1OC | 81.5% (inactive) |
| Cc1ccc2c(c1)O/C(=C\c1ccc([N+](=O)[O-])o1)C2=O | 91.1% (inactive) |
| CCC(C)CC(C)C(=O)c1c(O)ccn(OC)c1=O (stereo unspecified) | 86.7% (inactive) |
| CC(C)C(=O)Cc1cnccn1 | 116% (inactive) |
